Attribution: ChEMBL document CHEMBL1138248

Can you tell me IC50 for the items I'm about to list?
test system: L6; experiment: Cytotoxicity against rat L6 cells
One number for each entry, in µM.

| COMPOUND | TARGET OR TEST SYSTEM | IC50 [µM] |
| --- | --- | --- |
| CCN(CC)CCCC(C)Nc1ccnc2cc(Cl)ccc12 (stereo not drawn) | L6 | 117 |
| COc1cc([C@@H]2c3cc4c(cc3[C@H](O)[C@H]3COC(=O)[C@H]23)OCO4)cc(OC)c1OC | L6 | 0.01 |

As a next step, examine the compound that follows.
`N=C(N)c1ccc2oc(CCc3cc4cc(C(=N)N)ccc4o3)cc2c1` tested on L6 gave IC50: 21.5
